# measured target: T1, apical domain of cynomolgus CD71 (cynomolgus, UniProt A0A2K5X958 189-383)
# T1 construct: domain: apical domain; also called Cyno apical domain
# T1 sequence (A0A2K5X958 entry or part of it): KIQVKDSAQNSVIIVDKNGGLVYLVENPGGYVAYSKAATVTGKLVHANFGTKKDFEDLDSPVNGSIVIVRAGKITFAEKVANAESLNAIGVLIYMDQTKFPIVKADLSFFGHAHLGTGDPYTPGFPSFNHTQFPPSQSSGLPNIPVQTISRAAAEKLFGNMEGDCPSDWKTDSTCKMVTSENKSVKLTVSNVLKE
# assay protocol: primary ELISA, signal ratio to HSA
parameter: Cyno apical domain:HSA
One number for each entry.

Which value of Cyno apical domain:HSA has been reported for CD71-binding FN3 domain of SEQ ID NO: 126 (designed binder) MSLPAPKNLVVSRVTEDSARLSWTAPDAVFDSFEIAYQELSLWGEAIVLTVPGSERSYDLTGLKPGTEYYVHIGGVKGGIWSSPLSAYFTT in the records?
382

Need Cyno apical domain:HSA for each of these binders.
1. CD71-binding FN3 domain of SEQ ID NO: 127 (designed binder) MSLPAPKNLVVSRVTEDSARLSWTAPDAAFDSFFIGYLEPQPPGEAITLLVPGSERSYDLTGLKPGTEYNVTIQGVKGGFPSGPLQASFTT
2. CD71-binding FN3 domain of SEQ ID NO: 135 (designed binder) MSLPAPKNLVVSRVTEDSARLSWTAPDAAFDSFFIGYLEPQSPGEAIALYVPGSERSYDLTGLKPGTEYNVTIQGVKGGFPSEPLIANFTT
3. CD71-binding FN3 domain of SEQ ID NO: 176 (designed binder) MSLPAPKNLVVSRVTEDSARLSWTAPDAAFDSFFIGYLEPQPPGEAIHLFVPGSERSYDLTGLKPGTEYWVQIGGVKGGNWSAPLSAIFTT

259
232
149
